- test.description: HepG2 liver cancer cell viability effects, profiling panel, resazurin fluorescence, 24 h, PK04 Diversity Set (AID 1172); further: test concentration not given here
- measurement.parameters: higher = more signal
measurement.kind: z-score
Number only, please.

O=C1O[C@H](c2ccccc2)[C@H](c2ccccc2)N2[C@H]1[C@@H](C(=O)NC[C@H](O)c1ccccc1)[C@]1(C(=O)Nc3ccc(C#CC4=CCCCC4)cc31)[C@H]2c1ccc(OCCO)cc1    0.0374
CO[C@H]1COC(=O)[C@@H](OCc2ccccc2)C=C[C@H](C)[C@@H](OC)COC(=O)[C@H](OCc2ccccc2)C=C[C@@H]1C    1.12
CCC(=O)[C@]12O[C@@]3([C@@H]4C(=O)OCC[C@@H]41)N(Cc1ccccc1)C(C)=C(C(=O)OC)[C@@H](c1ccccc1)N3C2=O    0.859
C=C(COC)/C(=C/C[C@@H](OC(C)=O)c1cccc(OCCO)c1)c1cc(C(=O)OC)ccc1OC    1.21
C[C@H]1COC(=O)[C@H](Cc2ccccc2)NC(=O)[C@@H](C)COC(=O)[C@H](Cc2ccccc2)NC1=O    0.24
COC(=O)Cn1c(C(=O)N2CCCC2)cc2c1C[C@H]1CN(C(=O)c3ccccc3)[C@@](Cc3ccccc3)(C(=O)OC)[C@@H]21    -0.103
CCC#CCN(Cc1ccccc1Br)[C@H](/C=C/c1ccccc1)[C@@H](O)Cc1ccccc1    1.53
C[C@@H]1NC(=O)CC=C[C@@H](C)[C@@H]2C=C[C@H](O)[C@@H](COC(=O)[C@H](C)NC(=O)CC=C[C@@H](C)[C@@H]3C=C[C@H](O)[C@@H](COC1=O)O3)O2    -0.0969

So what's the measured z-score for this one? C=C(COC)/C(=C/C[C@@H](OC(=O)c1ccncc1)c1ccc(OCCO)cc1)c1cc(C(=O)OC)ccc1OC
0.789

Which measured z-score value corresponds to COC(=O)[C@H]1[C@@H]2COc3ccccc3[C@H]2N[C@H]1C(=O)OC ?
0.0968

Returns the measured z-score for the input compound. Input: Cc1ccc(S[C@]2(C(=O)O)CC(=O)N(Cc3cc(C(F)(F)F)cc(C(F)(F)F)c3)[C@@H]2c2ccc(CO)cc2I)cc1
-0.101

Could you share which z-score value was measured for O=C1O[C@@H](c2ccccc2)[C@@H](c2ccccc2)N2[C@@H](c3ccccc3OCCO)[C@]3(C(=O)Nc4ccc(C#CC5=CCCCC5)cc43)[C@@H](C(=O)O)[C@H]12 ?
0.172

Can you look up the measured z-score of COc1ccc(-c2ccccc2[C@@H]2N[C@H](C(=O)O)CC[C@H]2C)cc1 for me?
0.0637

Name the reported z-score value associated with the compound CO[C@@H]1COC(=O)[C@H](COCc2ccccc2)NC(=O)CC=C[C@@H](C)[C@H](OC)COC(=O)[C@H](COCc2ccccc2)NC(=O)CC=C[C@H]1C
0.784

What measured z-score goes with COCC(=C=CC[C@H](O)c1ccc(OCCO)cc1)C[C@H](O)c1ccccn1 ?
0.959

Attribution: PubChem BioAssay
